Test: soluble on expression in E. coli; label from the status in PepcDB or PDB records

{"biosequence": "MSLRHVIREVRADLIASPVQTGFQDATRKVETVGMCVIRVNTDQGLTGIGVTYHEVGGEAIKEMIERYYGPKLIGRDPFETEEIWEELFHYARGVGRKGLSFCALSAVDIALWDLKGKIMDLPLYRLLGGNKKKVPVYASGGWTSYDDDALVAEALEMVRRGYKMIKLKVGVEGGRNIRRDTQRCRKVREAIGPDIGFMVDANNAFHSGDAVRLANEIREYDILFFEEPVFADDIPGLRRFRQGTDIPLGTGEHEYTRYGARDLILGEAVDYLQMDVTRCGGITEMLKVIALSQAWNLAFAPHAMEHIHMHLVSAAANGAFLERLFLFEDITAMVFKDAPVPEEGILTIPDKPGLGLELNSEFLREGHHHHHH", "soluble on expression in E. coli": "soluble"}
{"biosequence": "LRANKPVFKNAGATLHDIGDGIVNLEFHTKMNTLGGEVVDAINRSIGIAEKDFQGIVIGNDGANFSAGANLALVLMYAIEQEYDEIDFMIRAFQNTMMRARYSSIPVVVAPHNLTLGGGCEMTLHADHVQAFAETYIGLVEFGVGLIPAGGGTKEFTLRVSDSFEDGDIQVNNLKNMYMHIATAKVATSAEEARSMGILRKSDGITLNRSRLIADAKAAAISLAEAG", "soluble on expression in E. coli": "not soluble"}
{"biosequence": "MSRQNPVRSTRGNSLRAREAQQAQDAPLFQESSSNVFVVEKVLNKRLTRGGSEYYIKWQGFPESECSWEPIENLQCDRMIQEYEKEAAKRTTRKRRYSPQPSTSSSAELQPSTSDEWAGKTLKTIIGITKAPGELHFLCKFSDDSVHLIPLREANVRFPSQVIKFYETRLVLQGVSPTIPGGMS", "soluble on expression in E. coli": "not soluble"}
{"biosequence": "MGSDKIHHHHHHMVKELDLQSVQGTMLIPLWGRAYGSEKNKNILDDTEAIRIIKEFDFDFSTIENTFGEYGCITYITRARKIDDTIKQFITKHPNATIVNIGSGLDTTFSRIDNGTIHWYNLDLPDAISFRKTLIEDTSRNTSIAKSFFDTSWFDDIKYDPNDGILFISAGVFYYFKEEDLKKIVVAMSKRFPGGELYFDAESKFALNLSNATVKKSGNNGALMYFYINNPKTLEKWSPNIKVLSCSPFFKNIPTNKGWDGSTRIMIRIVNLIKMLKFVHLRFEK", "soluble on expression in E. coli": "not soluble"}
{"biosequence": "MGHHHHHHSHMIGPIIDKLEKVAVRGGDKKLKPEYDIMCKVKSWVIDQKKPVRFYHDWNDKEIEVLNKHLFLTSKPMVYLVNLSEKDYIRKKNKWLIKIKEWVDKYDPGALVIPFSGALELKLQELSAEERQKYLEANMTQSALPKIIKAGFAALQLEYFFTAGPDEVRAWTIRKGTKAPQAAGKIHTDFEKGFIMAEVMKYEDFKEEGSENAVKAAGKYRQQGRNYIVEDGDIIFFKFNTPRQPKKK", "soluble on expression in E. coli": "not soluble"}
{"biosequence": "SAKAVRIGAEGYKLKLDGAVQEIDGRSVVLVDVDSITPLMFGGSMKEKAKLLDAKFLRKYYEENKDFFFLSTREEKKMFVTLQLAREYAELVDDQFLRGFFEKALESAQKAF", "soluble on expression in E. coli": "soluble"}
{"biosequence": "MSLWRSTVARAPLDARERKNLVAHVQSAQAHESAQHAELAKLRASVNVMKAAEATPRNDEAGQDSAMIPMAGPGVRIILDDANAAPADELGDKDMRKLVNAVWQSGAEAVAINGHRIGPRTAIRSAGSAITVDYVSLSRPYVVEAIGSPQKLPAELADTPGGRWMTYLRDNSSITYQVTTKDRVSVPGSKASVSHARPHREGHHHHHH", "soluble on expression in E. coli": "soluble"}
{"biosequence": "MALFRGMWSVLKALGRTGVEMCAGCGGRIPSSISLVCIPKCFSSMGSYPKKPMSSYLRFSTEQLPKFKAKHPDAKLSELVRKIAALWRELPEAEKKVYEADFKAEWKAYKEAVSKYKEQLTPSQLMGMEKEARQRRLKEKALVKRRELILLGKPKRPRSAYNIYVSESFQEAKDDSAQGKLKLVNEAWKNLSPEEKQAYIQLAKDDRIRTTYEMKSWEEQMAEVGRSDLIRRSVKRSGDISEH", "soluble on expression in E. coli": "soluble"}
{"biosequence": "MGSDKIHHHHHHMNAQEERSRDWVSIRRPFAKAGLETMTARYIQQSFKPHAHDEYVIGIIEGGVHSVWCRGIHHNMPSGTVVTMHPGDVHYGNAAIAEGWKQRMIYISENEIGKFISDIAGGDKFLLPDFKQTFHDRPDLAHSFAQFHEVLHSSPLALARDVALDSIMRVTIGALSPDFVKAKDAKQPSGRIADAVEFLHNRIEDDVTLDELCDVAGLRRRQTIEAFKRCTGLPPHAYHVIQKVKAVKTMLRDGFSATEAAARAGFADQSHMTRHFVGVVGMTPGAYALDCQKKY", "soluble on expression in E. coli": "not soluble"}
{"biosequence": "MMNEYRFHLEKYRLGNRYTCPNCERKRCFTRYIDDEGEVSFPDNVGKCDHEHSCGYHYTPKDYFREHPDFLSKDKLPYPTRGNTQPKVVEKPISYIANAIMERSLSHYGINPLYQYLSKVFGEQETERLMKMYHVGTSYKWGGSTIYWQVDKDDKVRTGKVMLYNPKDGHRVKEPRSYVGWAHAFLHLPDFNLCQCFFGEHLLAQHPTMSVAIVESEKTAIIASHFIPNFIWLATGGMHGCLNQIAVKVLGGRDIILFPDLGATDKWKSKIPLLQSVCKRVVISNILEDNATDEQKTKGLDIADFLLMAETPQMALQRLIKQHPPLKHLIDCLGLVLVEES", "soluble on expression in E. coli": "not soluble"}
{"biosequence": "PEKVTVVPKFGDWDENNPSSADGYTHIFNKVREER", "soluble on expression in E. coli": "soluble"}
{"biosequence": "MTRYLRLSGLEPFVLTPDIPFVNVGERTNVTGSARFRKLITNRDYAAALEVARDQVQNGAQILDVNMDEGLIDSKAAMVEFLNLIASEPDIARVPLMIDSSKWEVIEAGLKCVQGKPVVNSISLKEGEESFRRQAGLCLAYGAAVVVMAFDEEGQADSFARKTTICARAYRILVEEVGFPPEDIIFDPNVFAVATGIEEHDNYGVDFIEAARWIRANLPHAHVSGGVSNLSFSFRGNEPVREAMHAVFLYHAIRAGMDMGIVNAGQLAVYDQIDPDLREACEDVVLNRKPKQGGTATERLLALAER", "soluble on expression in E. coli": "not soluble"}
